Molecular target: T1, Human CD137 ECD (human)
T1 construct: also called 4-1BB
T1 sequence (chain, as listed by the source limits assumed): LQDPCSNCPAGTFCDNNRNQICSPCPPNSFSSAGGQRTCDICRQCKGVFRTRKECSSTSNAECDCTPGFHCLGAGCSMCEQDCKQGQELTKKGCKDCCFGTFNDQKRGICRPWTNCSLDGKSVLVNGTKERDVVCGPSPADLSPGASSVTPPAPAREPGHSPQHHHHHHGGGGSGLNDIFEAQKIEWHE
Experiment: single mutant vs template dBBDu183H
OUTCOME_MEASURE: fold change of affinity (fold)
Note: unit fold is implicit; provide only the numeric part.

I'd like to know its fold change of affinity. The binder in question is H183/L072 VH Y58N (antibody, name in Kabat numbering, V domains shown) VH: QVQLVESGGGLVQPGRSLRLSCAASGFTFSNAWMHWVRQAPGKGLEWVAQIKDKGNAYAANYAPSVKGRFTISRDDSKNSIYLQMNSLKTEDTAVYYCHYVHYASASTVLPAFGVDAWGQGTTVTVSS VL: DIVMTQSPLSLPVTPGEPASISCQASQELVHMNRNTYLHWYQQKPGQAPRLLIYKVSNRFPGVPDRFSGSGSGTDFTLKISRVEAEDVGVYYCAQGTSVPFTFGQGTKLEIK
0.3

I'd like to know its fold change of affinity. The binder in question is H183/L072 VH Y97I (antibody, name in Kabat numbering, V domains shown) VH: QVQLVESGGGLVQPGRSLRLSCAASGFTFSNAWMHWVRQAPGKGLEWVAQIKDKGNAYAAYYAPSVKGRFTISRDDSKNSIYLQMNSLKTEDTAVYYCHYVHIASASTVLPAFGVDAWGQGTTVTVSS VL: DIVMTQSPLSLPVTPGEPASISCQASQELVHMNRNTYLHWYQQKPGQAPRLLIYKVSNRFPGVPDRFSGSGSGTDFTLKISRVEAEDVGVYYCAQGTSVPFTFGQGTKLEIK
0

I'd like to know its fold change of affinity. The binder in question is H183/L072 VH G100hI (antibody, name in Kabat numbering, V domains shown) VH: QVQLVESGGGLVQPGRSLRLSCAASGFTFSNAWMHWVRQAPGKGLEWVAQIKDKGNAYAAYYAPSVKGRFTISRDDSKNSIYLQMNSLKTEDTAVYYCHYVHYASASTVLPAFIVDAWGQGTTVTVSS VL: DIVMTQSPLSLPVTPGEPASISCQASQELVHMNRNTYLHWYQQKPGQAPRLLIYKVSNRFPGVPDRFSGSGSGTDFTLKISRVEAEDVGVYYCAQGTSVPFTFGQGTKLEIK
0

I'd like to know its fold change of affinity. The binder in question is H183/L072 VH Y59L (antibody, name in Kabat numbering, V domains shown) VH: QVQLVESGGGLVQPGRSLRLSCAASGFTFSNAWMHWVRQAPGKGLEWVAQIKDKGNAYAAYLAPSVKGRFTISRDDSKNSIYLQMNSLKTEDTAVYYCHYVHYASASTVLPAFGVDAWGQGTTVTVSS VL: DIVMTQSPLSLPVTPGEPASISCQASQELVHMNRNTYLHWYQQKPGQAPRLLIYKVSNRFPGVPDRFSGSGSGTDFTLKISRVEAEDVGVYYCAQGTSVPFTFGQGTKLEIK
1.1

I'd like to know its fold change of affinity. The binder in question is H183/L072 VH A102M (antibody, name in Kabat numbering, V domains shown) VH: QVQLVESGGGLVQPGRSLRLSCAASGFTFSNAWMHWVRQAPGKGLEWVAQIKDKGNAYAAYYAPSVKGRFTISRDDSKNSIYLQMNSLKTEDTAVYYCHYVHYASASTVLPAFGVDMWGQGTTVTVSS VL: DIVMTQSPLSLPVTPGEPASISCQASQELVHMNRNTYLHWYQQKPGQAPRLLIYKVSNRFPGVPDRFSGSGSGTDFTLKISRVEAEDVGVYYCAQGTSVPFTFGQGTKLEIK
0
